test_protocol: ATG_AP_1_CIS: Attagene CIS-FACTORIAL HepG2 Assay for human Activator Protein 1 (AP-1) (AID 2282931)
condition_summary: HepG2 Attagene cis-factorial AP-1 reporter mRNA; actives raise or lower the signal
The source made the active and inactive calls. How the source made its calls: active means hit-call score of the fitted dose curve at least 0.9, where 1 is the maximum; inactive means score below 0.9.
attribute_measured: AC50

Study these solved cases before continuing.
O=C(O)CN(CC(=O)O)CC(=O)O; inactive
C#CC(O)C(CC)CCCC (configuration not stated); 100 µM (active)
O=C1NC(=O)C(c2ccccc2)(c2ccccc2)N1; inactive
CC(=O)S[C@H](C(=O)N[C@H]1Cc2ccccc2[C@H]2CCC[C@@H](C(=O)O)N2C1=O)C(C)C; inactive

Quick request: AC50 for each listed item, please.
1. CC(=O)OCC(COC(C)=O)OC(C)=O
2. Oc1ccc(O)cc1
3. CCCCC(CC)CO (configuration not stated)
4. O=C(N[C@@H](c1ccccc1)[C@@H]1CCCCN1)c1cccc(C(F)(F)F)c1Cl
5. CCCCCCCCCCCCCCOS(=O)(=O)O

Result ::
1. inactive
2. 48.3 µM (active)
3. inactive
4. 9.01 µM (active)
5. inactive

---

test_protocol: Tanguay_ZF_120hpf_JAW_legacy: (Legacy) Oregon State University Tanguay Lab 120 Hour Post-fertilization zebrafish Assay for Jaw Malformation (AID 2283638)
Protocol: Tanguay_ZF_120hpf_legacy is a whole embryo, multiplexed endpoint assay using zebrafish larvae exposed for 120 hours post fertilization on a 96-well plate.Tanguay_ZF_120hpf_JAW_legacy is one of one assay component(s) measured or calculated from the Tanguay_ZF_120hpf_legacy assay. […] This assay endpoint, Tanguay_ZF_120hpf_JAW_legacy, was analyzed in the positive analysis fitting direction relative to DMSO as the negative control and baseline of activity. […]
Results filed as inconclusive are left out. Calls of active or inactive are those of the source. How the source made its calls: active means hit-call score of the fitted dose curve at least 0.9, where 1 is the maximum; inconclusive means response in the unintended direction; inactive means score below 0.9.
Answer with one of the outcomes active, inactive

Solved entries:
Cc1cc(SC2=C(O)C[C@@](CCc3ccc(N)cc3)(C(C)C)OC2=O)c(C(C)(C)C)cc1CO; inactive
Nc1nc(Cl)nc2c1ncn2[C@H]1C[C@H](O)[C@@H](CO)O1; inactive
CCCCCCCCCCCCCCOS(=O)(=O)O; active
S=c1[nH]c2ccccc2s1; active

Query :: Hey, what did the test say about CCOCCOCCO ?
Result :: inactive

Query :: Entry CC(=O)CC(c1ccccc1)c1c(O)c2ccccc2oc1=O (configuration not stated) : call = ?
Result :: inactive

Query :: Tell me the recorded outcome of this test for Cc1cn([C@H]2C=C[C@@H](CO)O2)c(=O)[nH]c1=O .
Result :: inactive

Query :: Test call for this compound, please: CC(=O)O
Result :: inactive

Query :: Record request — test call for O=C(O)c1[nH]n(-c2ccc(S(=O)(=O)O)cc2)c(=O)c1N=Nc1ccc(S(=O)(=O)O)cc1
Result :: inactive

Query :: Check the results log: what was the call for C/C=C/C=C/C(=O)O ?
Result :: inactive

Query :: Identify the outcome logged in this assay for the compound shown: CCc1cc(C2=C(C(=O)O)N(c3ccccc3C(F)(F)F)S(=O)(=O)c3ccccc32)cc2c1OCO2
Result :: inactive

Query :: I would be grateful if you could indicate the recorded call for C=CCc1ccc(OC)c(OC)c1 .
Result :: inactive

---

test_protocol: CCTE_Shafer_MEA_acute_burst_percentage_std: CCTE's Neural Acute Assay for Standard Deviation of Burst Percentage, Shafer Lab (AID 2284018);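 further: fitted in the negative direction so actives lower burst percentage SD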
Protocol: CCTE_Shafer_MEA_acute assay is conducted using Axion Biosystems 48 well microelectrode array (MEA) plates and Maestro recording system. Each well of the MEA plate contains a grid of 16 microelectrodes embedded in the culture surface. Electrically active cells, such as neurons, can be cultured over the electrodes, and electrical activity in these cells can be recorded extracellularly. […] The standard deviation of the burst percentages across electrodes is calculated to report a well-level value. […]
Active and inactive are the calls of the source. How the source made its calls: active means hit-call score of the fitted dose curve at least 0.9, where 1 is the maximum; inactive means score below 0.9.
attribute_measured: AC50

CSc1ccc(Oc2ccc(S(N)(=O)=O)cc2CN(C)C)cc1C; 32.1 µM (active)
Nc1nc(=S)c2[nH]cnc2[nH]1; inactive
CCCCC(CC)COP(=O)(OCC(CC)CCCC)OCC(CC)CCCC (stereo unspecified); inactive
CN(C)CCCN1c2ccccc2Sc2ccc(Cl)cc21; 31.6 µM (active)
O=C(N[C@@H](c1ccccc1)[C@@H]1CCCCN1)c1cccc(C(F)(F)F)c1Cl; inactive
CCCC(=O)O; inactive
Oc1ccc(O)cc1; inactive
CN(C)C(=O)NC1(c2ccccc2)CCN(CCC[C@]2(c3ccc(Cl)c(Cl)c3)CCCN(C(=O)c3ccccc3)C2)CC1; 1.83 µM (active)
Cc1ccc(-c2cc(C(F)(F)F)nn2-c2ccc(S(N)(=O)=O)cc2)cc1; inactive
COC(=O)[C@H]1[C@H]2C[C@@H]3c4[nH]c5cc(OC)ccc5c4CCN3C[C@H]2C[C@@H](OC(=O)c2cc(OC)c(OC)c(OC)c2)[C@@H]1OC; inactive

For the next question, use this molecule.
Query :: Requested field: AC50. Item: C/C=C/c1ccc(OC)cc1
Result :: inactive

---

test_protocol: APR_HepG2_MitoMass_24hr: Apredica 24-hour HepG2 Assay for Mitochondrial Mass (AID 2282912)
condition_summary: high-content imaging, actives raise or lower the signal
Activity calls are given as the source filed them. Rule for the calls: active = hit-call score of the fitted dose curve at least 0.9, where 1 is the maximum; inactive = score below 0.9.
attribute_measured: AC50

# count of solved cases: 8
Nc1nc(=S)c2[nH]cnc2[nH]1; inactive
CO[C@@H]1COCC[C@@H]1N[C@@H]1CC[C@@](C(=O)N2CCc3ncc(C(F)(F)F)cc3C2)(C(C)C)C1; inactive
CCc1nc(N)nc(N)c1-c1ccc(Cl)cc1; inactive
CCCCCCCCCCCCCCOS(=O)(=O)O; inactive
CN(C)CCCN1c2ccccc2Sc2ccc(Cl)cc21; 31 µM (active)
Cc1cc(SC2=C(O)C[C@@](CCc3ccc(N)cc3)(C(C)C)OC2=O)c(C(C)(C)C)cc1CO; inactive
NC(=Nc1ccccc1)Nc1ccccc1; inactive
Nc1nc(Cl)nc2c1ncn2[C@H]1C[C@H](O)[C@@H](CO)O1; 0.243 µM (active)

For the 4 compounds below, give their AC50 values.
1. N[C@@H](Cc1c[nH]c2ccccc12)C(=O)O
2. O=C(O)c1[nH]n(-c2ccc(S(=O)(=O)O)cc2)c(=O)c1N=Nc1ccc(S(=O)(=O)O)cc1
3. CC1(C)C(=O)NC(=O)N1CO
4. O=[Si]=O

Result ::
inactive
inactive
inactive
inactive

---

test_protocol: CCTE_Shafer_MEA_acute_cross_correlation_area: CCTE's Neural Acute Assay for Area of Cross Correlation, Shafer Lab (AID 2284024);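 further: area under pooled inter-electrode spike cross-correlation near zero lag as percent change from own baseline; curves fitted for loss of cross-correlation area so actives lower synchrony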
Activity calls are given as the source filed them. Rule for the calls: active = hit-call score of the fitted dose curve at least 0.9, where 1 is the maximum; inactive = score below 0.9.
Return exactly one item of 1 = active, -1 = inactive

c1ccc2occc2c1; -1
Cc1cc(SC2=C(O)C[C@@](CCc3ccc(N)cc3)(C(C)C)OC2=O)c(C(C)(C)C)cc1CO; 1
CC(N)=O; -1
Nc1nc(=S)c2[nH]cnc2[nH]1; -1
CC(C)COC(=O)CCCCC(=O)OCC(C)C; -1

Query :: Assay outcome for COc1ccc(OC(F)(F)F)cc1CN[C@H]1CCCN[C@H]1c1ccccc1 : what was it?
Result :: -1

Query :: Test call for this compound, please: CC1=C(C)S(=O)(=O)CCS1(=O)=O
Result :: -1

Query :: For Cc1ccc(-c2cc(C(F)(F)F)nn2-c2ccc(S(N)(=O)=O)cc2)cc1 , which call appears in the assay record?
Result :: -1

Query :: Lab log entry: CCCC(=O)O — outcome as called in the assay?
Result :: -1

Query :: What classification did COC(=O)[C@H]1[C@H]2C[C@@H]3c4[nH]c5cc(OC)ccc5c4CCN3C[C@H]2C[C@@H](OC(=O)c2cc(OC)c(OC)c(OC)c2)[C@@H]1OC end up with in this test?
Result :: -1

---

Read-out: solute carrier (SLC22A1), SLC22A1 (gene 6580)
test_protocol: LTEA_HepaRG_SLC22A1: Life Technologies and Expression Analysis (LTEA) Assay for solute carrier (SLC22A1) using HepaRG (AID 2283524)
condition_summary: mRNA level, 48 h; actives raise or lower the signal
Calls of active or inactive are those of the source. How the source made its calls: active means hit-call score of the fitted dose curve at least 0.9, where 1 is the maximum; inactive means score below 0.9.
Mark one answer only. Choices: y (active), n (inactive)

Consider the worked cases shown below.
OCC(O)CO; n
O=C1OC(c2ccc(O)cc2)(c2ccc(O)cc2)c2ccccc21; y
CCc1nc(N)nc(N)c1-c1ccc(Cl)cc1; y
O=[Si]=O; n
CC(C)c1cccc(C(C)C)c1; n
CCN(CC)CCOc1ccc(C(=C(Cl)c2ccccc2)c2ccccc2)cc1; y
CC(C)OC(=O)C(C)(C)Oc1ccc(C(=O)c2ccc(Cl)cc2)cc1; n
CC(C)(C)c1ccccc1; n
CC(=O)O; n
CCCC[C@H]1CN(CC2CCOCC2)C(=O)OC12CCN(C1(C)CCN(C(=O)c3c(C)ncnc3C)CC1)CC2; n

Could you now look at the following compound, please?
Query :: Each compound tested received a call. Report the one for Cc1ccc(C(C)(C)C)c(O)c1 .
Result :: n
